System: 777334-354-R2-J4-PDC tumor spheroids with HUVEC/MSC, viability;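 further: spheroids exposed to compounds for 7 days before readout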
experiment description: Anticancer human tumor 777334-354-R2-J4-PDC patient-derived pancreatic adenocarcinoma cell line growth inhibition [GQUAD]
study conditions: second compound 1 µM; first compound 10 µM; stronger effect = lower value
Text: DNA G-quadruplex Stabilizer Agents in Combinations in Complex Spheroids A high-throughput screen of multi-cell type tumor spheroids was designed to identify active combinations of DNA G-quadruplex stabilizer agents and targeted small molecules. […] Compounds. […] If the clinical Cmax for an agent had not been determined, the highest concentration tested was 10 microM. […]
viability, T/C for assorted compounds
endpoint: viability, T/C (%)

1. CC1COCCN1c1cc(C2(O)CC3CCC(C2)O3)c2cnn(-c3ccn[nH]3)c2n1 (stereo not drawn) + Cc1cnc(CNC(=O)c2c(=O)c3ccc(N4CCCN(C)CC4)nc3n3c2sc2ccccc23)cn1    15
2. COc1cc(C2c3cc4c(cc3C(OC3OC5COC(C)OC5C(O)C3O)C3COC(=O)C23)OCO4)cc(OC)c1O (stereo not drawn) + CN(C)c1ccc(Nc2c3ccc(NC(=O)CCN4CCCC4)cc3nc3cc(NC(=O)CCN4CCCC4)ccc23)cc1    37.4
3. Nc1ccn(C2OC(CO)C(O)C2(F)F)c(=O)n1 (stereo not drawn) + Cc1[nH]c2ccc(F)cc2c1-c1nc2c3cccnc3c3ncccc3c2[nH]1    29.3
